# methodNotes: Half life in mouse at 1.15 mg/kg, iv by LC-MS/MS analysis
# Assay type: ADME, organism-based
# conditionContext: in vivo
valueKind: half-life (h)
Provide the reading as a plain figure in h.

Request: Using the record for `O=C(O)CCc1cc(F)c(OCc2c(C(F)(F)F)ccn2-c2ccc(Cl)cc2)c(F)c1` , report its half-life.
Response: 4.14

----------
# methodNotes: Oral bioavailability in dog at 5 mg/kg by LC-MS/MS analysis
# Type: ADME, organism-based, Canis lupus familiaris
# conditionContext: in vivo
valueKind: bioavailability (%)
Provide the reading as a plain figure in %.

Request: Using the record for `O=C(O)CCc1cc(F)c(OCc2c(C(F)(F)F)ccn2-c2ccc(Cl)cc2)c(F)c1` , report its bioavailability.
Response: 145

----------
# methodNotes: Half life in dog at 5 mg/kg, po by LC-MS/MS analysis
# Assay type: ADME, organism-based, Canis lupus familiaris
# conditionContext: in vivo
valueKind: half-life
The reply should consist of the numeric value with the unit placed after it.

Request: Using the record for `O=C(O)CCc1cc(F)c(OCc2c(C(F)(F)F)ccn2-c2ccc(Cl)cc2)c(F)c1` , report its half-life.
Response: 4.37 h

----------
# methodNotes: Volume of distribution at steady state in mouse at 1.15 mg/kg, iv by LC-MS/MS analysis
# Assay type: ADME, organism-based
# conditionContext: in vivo, read-out: Vdss
valueKind: Vd (L/kg)
Provide the reading as a plain figure in L/kg.

Request: Using the record for `O=C(O)CCc1cc(F)c(OCc2c(C(F)(F)F)ccn2-c2ccc(Cl)cc2)c(F)c1` , report its Vd.
Response: 1.14

----------
# systemTested: Free fatty acid receptor 4 (Homo sapiens)
# Sequence (Q5NUL3 whole entry): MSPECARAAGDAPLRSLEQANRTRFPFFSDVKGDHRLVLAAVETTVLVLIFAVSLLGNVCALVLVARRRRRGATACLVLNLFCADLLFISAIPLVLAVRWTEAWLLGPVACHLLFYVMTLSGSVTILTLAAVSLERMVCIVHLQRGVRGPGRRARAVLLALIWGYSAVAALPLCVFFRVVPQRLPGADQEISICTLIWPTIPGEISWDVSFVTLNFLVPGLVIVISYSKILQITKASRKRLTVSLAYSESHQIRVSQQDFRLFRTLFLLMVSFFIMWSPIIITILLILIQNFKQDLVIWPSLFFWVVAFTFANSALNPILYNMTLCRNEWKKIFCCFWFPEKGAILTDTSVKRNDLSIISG
# methodNotes: Agonist activity at GPR120 in human HT-29 cells assessed as intracellular calcium flux
# Assay type: functional, cell-based
valueKind: pEC50
API: returns pEC50 as number; meaning -log10 of concentration in mol/L.

Request: Report pEC50 for `O=C(O)CCc1cc(F)c(OCc2c(C(F)(F)F)ccn2-c2ccc(Cl)cc2)c(F)c1` tested on Free fatty acid receptor 4 (Homo sapiens).
Response: 6.86

----------
# methodNotes: Cmax in rat at 10 mg/kg, po by LC-MS/MS analysis
# Format: ADME, organism-based
# Set-up: dose 10 mg/kg, route oral
# conditionContext: in vivo
valueKind: Cmax (ng/mL)
Provide the reading as a plain figure in ng/mL.

Request: Using the record for `O=C(O)CCc1cc(F)c(OCc2c(C(F)(F)F)ccn2-c2ccc(Cl)cc2)c(F)c1` , report its Cmax.
Response: 11600

----------
# methodNotes: Volume of distribution at steady state in dog at 1 mg/kg, iv by LC-MS/MS analysis
# Type: ADME, organism-based, Canis lupus familiaris
# conditionContext: in vivo, read-out: Vdss
valueKind: Vd (L/kg)
Provide the reading as a plain figure in L/kg.

Request: Using the record for `O=C(O)CCc1cc(F)c(OCc2c(C(F)(F)F)ccn2-c2ccc(Cl)cc2)c(F)c1` , report its Vd.
Response: 0.52

----------
# methodNotes: Half life in mouse at 14.6 mg/kg, po by LC-MS/MS analysis
# Format: ADME, organism-based
# conditionContext: in vivo
valueKind: half-life (h)
Provide the reading as a plain figure in h.

Request: Using the record for `O=C(O)CCc1cc(F)c(OCc2c(C(F)(F)F)ccn2-c2ccc(Cl)cc2)c(F)c1` , report its half-life.
Response: 3.45
